Where do the numbers come from? From patent US3933793A.

- Tested on: Micrococcus pyogenes SG-511
Structures can show the parent of a compound that is named as a salt.
MEASUREMENT KIND: MIC (µg/mL)
Numbers only, in µg/mL.

C[N+]1(CCCSC2=Nc3ccccc3N=C(c3ccc(Cl)cc3)C2)CCCC1 ... 20
C[N+]1(CCSC2=Nc3ccccc3N=C(c3ccc(Cl)cc3)C2)CCCC1 ... 20
c1ccc(C2=Nc3ccccc3N=C(SCCN3CCCC3)C2)cc1 ... 80
CCN(CC)CCSC1=Nc2ccccc2N=C(c2ccc(Cl)cc2)C1 ... 40
c1ccc(C2=Nc3ccccc3N=C(SCCN3CCCCC3)C2)cc1 ... 80

Please supply MIC for each of the following items, keeping them in order.
1. CC[N+](C)(CC)CCSC1=Nc2ccccc2N=C(c2ccc(SC(C)C)cc2)C1
2. CCCSc1ccc(C2=Nc3ccccc3N=C(SCC[N+](C)(CC)CC)C2)cc1
3. CCN(CC)CCSC1=Nc2ccccc2N=C(c2cccc(Cl)c2)C1 [Compound 21, HCl]
4. c1ccc(Sc2ccc(C3=Nc4ccccc4N=C(SCCCN4CCCC4)C3)cc2)cc1
5. C[N+]1(CCCSC2=Nc3ccccc3N=C(c3ccc(Sc4ccccc4)cc3)C2)CCCC1
6. CCN(CC)CCCSC1=Nc2ccccc2N=C(c2ccc(Cl)cc2)C1 [Compound 19, HCl]

1: 5; 2: 1.25; 3: 40; 4: 5; 5: 2.5; 6: 40

Please supply MIC for each of the following items, keeping them in order.
1. CC[N+](C)(CC)CCSC1=Nc2ccccc2N=C(c2ccc(Cl)cc2)C1
2. CCCCSc1ccc(C2=Nc3ccccc3N=C(SCC[N+](C)(CC)CC)C2)cc1
3. CCCSc1ccc(C2=Nc3ccccc3N=C(SCCN(CC)CC)C2)cc1
4. CC[N+](C)(CC)CCSC1=Nc2ccccc2N=C(c2ccccc2Cl)C1
5. CC[N+](C)(CC)CCSC1=Nc2ccccc2N=C(c2cccc(Cl)c2)C1

1. 40
2. 2.5
3. 10
4. 80
5. 20

Please supply MIC for each of the following items, keeping them in order.
1. C[N+]1(C)CCN(CCCSC2=Nc3ccccc3N=C(c3ccccc3)C2)CC1
2. CCSc1ccc(C2=Nc3ccccc3N=C(SCC[N+](C)(CC)CC)C2)cc1

160
10

---

Please respond with reported MIC for every item in the list.
- Test system: Micrococcus pyogenes SG-511
Counter-ions that a name gives are not always drawn.
One number for each entry, in µg/mL.

Example results:
CCN(CC)CCSC1=Nc2ccccc2N=C(c2ccccc2)C1 [Compound 53] ... 80
CCN(CC)CCSC1=Nc2ccccc2N=C(c2ccc(Br)cc2)C1 [Compound 71] ... 20
Clc1ccc(C2=Nc3ccccc3N=C(SCCCN3CCCC3)C2)cc1 [Compound 13, HCl] ... 40
Clc1ccc(C2=Nc3ccccc3N=C(SCCN3CCCC3)C2)cc1 [Compound 15] ... 40
CC[N+](C)(CC)CCCSC1=Nc2ccccc2N=C(c2ccc(Cl)cc2)C1 [Compound 20] ... 20
CC[N+](C)(CC)CCSC1=Nc2ccccc2N=C(c2ccc(SC)cc2)C1 [Compound 74] ... 20

From here, focus on the item given below.
Request body: readout MIC, system Micrococcus pyogenes SG-511, query CC[N+](C)(CC)CCSC1=Nc2ccccc2N=C(c2ccc(Br)cc2)C1 [Compound 72] . Return the value.
10
